src = paper PMC9352680

# target_desc: T1, PUF4 RNA-binding domain (Saccharomyces cerevisiae, UniProt P25339 537-888)
# T1 sequence: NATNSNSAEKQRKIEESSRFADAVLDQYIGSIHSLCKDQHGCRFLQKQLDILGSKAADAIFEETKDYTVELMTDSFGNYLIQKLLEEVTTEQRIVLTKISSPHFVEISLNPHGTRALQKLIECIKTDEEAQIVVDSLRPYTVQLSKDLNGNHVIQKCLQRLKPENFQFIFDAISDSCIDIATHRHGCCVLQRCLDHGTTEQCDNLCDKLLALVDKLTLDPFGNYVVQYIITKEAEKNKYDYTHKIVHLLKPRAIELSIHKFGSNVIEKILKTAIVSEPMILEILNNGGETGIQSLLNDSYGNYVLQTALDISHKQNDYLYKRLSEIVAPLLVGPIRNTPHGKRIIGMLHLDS
# experiment: Mg; RNA-MaP; 20 mM Na-HEPES pH 7.4, 30 mM KOAc, 0.75 mM MgCl2, 0.1% Tween-20, 5% glycerol, 0.1 mg/mL BSA, 2 mM DTT; 25 C; 0.0125-409.6 nM protein
# condition_set: tags: N-His6-TEV cleaved; C-SNAP kept, Cy3B-labelled; label: tethered on chip by stalled RNA polymerase
Kd by entry:
parameter_measured: Kd (nM)

binder="Ic_S2_P4E.1_K4.1_C4.1_H4.1_A4.1_[A6T]_[T7G]_F4.1_T4.1 (ssRNA) RNA: UUUGAUUAAUAUGAUAUCGUUCUUUCUUGUAUUGUAUUCUUUCUCGAUAUCAUAUUAAUCUUU" comparator== test_value=4.85
binder="UCUCUUUGUAGCACUAUCUCUU (ssRNA) [Ic_S1_P5E.1_K5.1_C5.1_H5.1_A5.1_[T5G]_[T6C]_F5.1_[T8C]_T5.1]" comparator== test_value=45.5
binder="Id_ii_S2_P3E.3_K3.2_C3.2_[C-2A]_[T-1A]_H3.2_A3.1_F3.1_T3.2_[T9A]_[A10G] (ssRNA) RNA: UUUGAUUAAUAUGAUAUCGUUCUUUCUAAUAUAUAUAAGUUCUUUCUCGAUAUCAUAUUAAUCUUU" comparator== test_value=1010
binder="UCUCUUUGUAGCAAUCUCUU (ssRNA) [Ic_S1_P3E.1_K3.1_C3.1_H3.1_A3.1_[T5G]_[A6C]_F3.1_[T7A]_T3.1]" comparator== test_value=1060
binder="Ib_S2_P5E.1_K5.1_C5.1_H5.1_[T1A]_A5.1_F5.1_[A10C]_T5.1 (ssRNA) RNA: UUUGAUUAAUAUGAUAUCGUUCUUUCUAGUAUUAUUCUUCUUUCUCGAUAUCAUAUUAAUCUUU" comparator=> test_value=2300
binder="UCUCUUUGUAUUUAAUCUCUU (ssRNA) [Ic_S1_P4E.1_K4.1_C4.1_H4.1_A4.1_[A6T]_F4.1_[T8A]_T4.1]" comparator== test_value=66.5
binder="Id_ii_S2_P4E.4_K4.3_C4.2_[T-1G]_H4.3_A4.1_F4.1_T4.2_[G10T] (ssRNA) RNA: UUUGAUUAAUAUGAUAUCGUUCUUUCUCGACACUAUUAUUUUCUUUCUCGAUAUCAUAUUAAUCUUU" comparator=> test_value=2300
binder="Id_ii_S2_P5E.3_K5.2_C5.2_[C-2T]_H5.2_A5.1_F5.1_T5.2_[T11C] (ssRNA) RNA: UUUGAUUAAUAUGAUAUCGUUCUUUCUUUUAUAUUAUUACAUUCUUUCUCGAUAUCAUAUUAAUCUUU" comparator== test_value=131
binder="UCUCUUUGUAACAACUCUCUU (ssRNA) [Ic_S1_P4E.1_K4.1_C4.1_H4.1_A4.1_[T5A]_[A6C]_[T7A]_F4.1_[T8A]_[A9C]_T4.1]" comparator== test_value=580
binder="ACAAACUUUAUAUAUACAACAAAC (ssRNA) [Id_ii_S3_P3E.3_K3.2_C3.2_[C-2T]_H3.2_A3.1_F3.1_T3.2_[T9C]]" comparator== test_value=925
binder="Ib_S4_P5E.1_K5.1_C5.1_H5.1_[G2T]_[A4G]_A5.1_F5.1_T5.1 (ssRNA) RNA: UUUGACAACUGAUCGUUCUUUCUUUUGUUAUUAUUCUUUCUCGAUCAGUUGUCUUU" comparator== test_value=492
binder="ACAAACUCUAUAUUAUUAAGACAAAC (ssRNA) [Id_ii_S3_P5E.3_K5.2_C5.2_[C-2T]_[T-1C]_H5.2_A5.1_F5.1_T5.2_[T11A]_[A12G]]" comparator== test_value=684
